The measurements presented in this section are drawn from patent US8227498B2.

Kindly supply the reported pKi values for the records listed here.
Remember the convention: pKi equals -log10 of concentration in molar.

Inquiry: Any idea what pKi came out for CCc1ccc(N/C(=N/C#N)NCCCn2cncc2C)cc1 [Example 1] on glutaminyl cyclase (QC) (Homo sapiens, UniProt Q16769)?
Reply text: 6.77

Inquiry: Any idea what pKi came out for Cc1cn(CCCN/C(=N\C#N)Nc2cccc3ccccc23)cn1 [Example 23] on glutaminyl cyclase (QC) (Homo sapiens, UniProt Q16769)?
Reply text: 5.77

Inquiry: Any idea what pKi came out for CCc1ccc(N/C(=N/C#N)NCCCn2cnc(C)c2)cc1 [Example 22] on glutaminyl cyclase (QC) (Homo sapiens, UniProt Q16769)?
Reply text: 5.63

Inquiry: Any idea what pKi came out for COc1ccc(N/C(=N\C#N)NCCCn2cnc(C)c2)cc1 [Example 28] on glutaminyl cyclase (QC) (Homo sapiens, UniProt Q16769)?
Reply text: 5.69

Inquiry: Any idea what pKi came out for COc1cc(N/C(=N/C#N)NCCCn2cncc2C)cc(OC)c1 [Example 16] on glutaminyl cyclase (QC) (Homo sapiens, UniProt Q16769)?
Reply text: 6.90

Inquiry: Any idea what pKi came out for Cc1cn(CCCN/C(=N/C#N)Nc2ccc3nsnc3c2)cn1 [Example 24] on glutaminyl cyclase (QC) (Homo sapiens, UniProt Q16769)?
Reply text: 5.66

Inquiry: Any idea what pKi came out for Cc1cn(CCCN/C(=N/C#N)Nc2ccc3ccccc3c2)cn1 [Example 30] on glutaminyl cyclase (QC) (Homo sapiens, UniProt Q16769)?
Reply text: 5.73

Inquiry: Any idea what pKi came out for Cc1cncn1CCCN/C(=N\C#N)Nc1ccc2c(c1)OCO2 [Example 14] on glutaminyl cyclase (QC) (Homo sapiens, UniProt Q16769)?
Reply text: 6.96

Inquiry: Any idea what pKi came out for Cc1cncn1CCCN/C(=N/C#N)Nc1ccc(C#N)cc1 [Example 4] on glutaminyl cyclase (QC) (Homo sapiens, UniProt Q16769)?
Reply text: 6.73

Inquiry: Any idea what pKi came out for Cc1cncn1CCCN/C(=N\C#N)Nc1ccc2ccccc2c1 [Example 10] on glutaminyl cyclase (QC) (Homo sapiens, UniProt Q16769)?
Reply text: 7.03

Inquiry: Any idea what pKi came out for Cc1cn(CCCN/C(=N\C#N)Nc2ccc(C(C)C)cc2)cn1 [Example 21] on glutaminyl cyclase (QC) (Homo sapiens, UniProt Q16769)?
Reply text: 5.64
